Source listed as ChEMBL document CHEMBL3988442.

Listed below: Percent Effect values for each entry.
- SYSTEM TESTED: Aspartate--tRNA(Asp/Asn) ligase (Mycobacterium tuberculosis (strain ATCC 25618 / H37Rv)) (UniProt P9WFW3); further: in the data most compounds retested in dose-response had high values
- Sequence (P9WFW3 whole entry): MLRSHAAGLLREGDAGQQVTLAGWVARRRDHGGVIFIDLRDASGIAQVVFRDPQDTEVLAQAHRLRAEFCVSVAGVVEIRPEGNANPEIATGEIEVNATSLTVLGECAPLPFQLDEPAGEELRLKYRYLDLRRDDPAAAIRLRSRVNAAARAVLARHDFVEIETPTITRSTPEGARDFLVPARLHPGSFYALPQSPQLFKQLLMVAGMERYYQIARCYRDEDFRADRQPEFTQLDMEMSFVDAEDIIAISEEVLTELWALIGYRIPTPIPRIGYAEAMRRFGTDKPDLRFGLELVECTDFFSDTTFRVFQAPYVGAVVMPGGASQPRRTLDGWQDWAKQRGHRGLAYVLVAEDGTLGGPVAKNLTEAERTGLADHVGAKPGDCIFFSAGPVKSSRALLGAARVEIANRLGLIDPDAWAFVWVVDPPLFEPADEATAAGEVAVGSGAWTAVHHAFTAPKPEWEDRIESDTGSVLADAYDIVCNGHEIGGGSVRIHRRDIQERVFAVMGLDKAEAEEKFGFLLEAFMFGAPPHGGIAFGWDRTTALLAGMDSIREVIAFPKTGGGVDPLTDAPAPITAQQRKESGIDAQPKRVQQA
- PROCEDURE TEXT: Assay for Asp RNA synthetase-1 from Mycobacterium tuberculosis
- Assay type: functional
- Set-up: scale not given: direction of the effect not stated beside the values
- DETAILS: 30 µM
MEASUREMENT TYPE: Percent Effect (%)

COMPOUND: CC1CCCN(Cc2c(C3CCOCC3)[nH]c3ncccc23)C1 (stereo unspecified)
QUANTITATIVE RESULT: 3.59

COMPOUND: Cc1ccccc1[C@@H]1CN(C(=O)c2ccc3[nH]nnc3c2)C[C@H]1C(=O)O
QUANTITATIVE RESULT: 2.17

COMPOUND: CCc1nc(CC(=O)N2CCN(c3cnccn3)CC2)cs1
QUANTITATIVE RESULT: -3.74

COMPOUND: Cc1nc(C)n(CC2CCCN2CC(=O)NCc2ccco2)n1 (stereo unspecified)
QUANTITATIVE RESULT: 4.57

COMPOUND: CN(C)C(=O)CN1C[C@@H]2CC[C@H](C1)N(Cc1cccc(Cl)c1Cl)C2
QUANTITATIVE RESULT: 0.661

COMPOUND: COc1ccc(CN2CCC3(CC2)CCN(c2ncccn2)CC3)cc1
QUANTITATIVE RESULT: 2.89

COMPOUND: CC(CCc1ccccc1)NC(=O)Nc1cnn(CC(N)=O)c1 (stereo unspecified)
QUANTITATIVE RESULT: 2.84

COMPOUND: N#Cc1cc(NS(=O)(=O)c2ccc(C(=O)O)cc2F)ccc1F
QUANTITATIVE RESULT: 2.89

COMPOUND: Cc1oncc1C(=O)N1CCC2(C1)CN(c1cccnc1)C(=O)CN2C (stereo unspecified)
QUANTITATIVE RESULT: -6.17

COMPOUND: COc1ccc(OCCN(C)C(=O)NC(C)c2nncn2C)cc1 (stereo unspecified)
QUANTITATIVE RESULT: -1.96

COMPOUND: Cc1nc(C2CCCN(C(=O)CO)C2)cc(N2CCOCC2)n1 (stereo unspecified)
QUANTITATIVE RESULT: -4.78

###

- SYSTEM TESTED: Shiga toxin 2 (Escherichia coli O157:H7) (UniProt P09385+P09386)
- PROCEDURE TEXT: E. coli 0.157:H7 Shiga Toxin SOP - stx2 screening assay
- Assay type: functional
- Set-up: scale not given: direction of the effect not stated beside the values
- DETAILS: 30 µM
Listed below: Percent Effect values for each entry.

COMPOUND: Cc1cc(CN2CCCC2c2c(C)nn(C)c2Cl)no1 (stereo unspecified)
Percent Effect, %: 8.59
--
COMPOUND: CCN(CC)Cc1ccc(C(=O)N2CCCCC2Cn2cccn2)o1 (stereo unspecified)
Percent Effect, %: 1.31
--
COMPOUND: COc1ccccc1N1CCC(CNCc2cccc(OC)c2OC)C1 (stereo unspecified)
Percent Effect, %: -7.96
--
COMPOUND: CCCc1nc(CN2CCCC(Cn3cncn3)C2)no1 (stereo unspecified)
Percent Effect, %: -26.6
--
COMPOUND: Cc1nc(CCNC(=O)N2CCC(Cc3cnn(C)c3)C2)cs1 (stereo unspecified)
Percent Effect, %: -13.9
--
COMPOUND: CCS(=O)(=O)N1CCC[C@]2(C(=O)N(C)C)CN(c3ncccn3)C[C@@H]2C1
Percent Effect, %: -34.5
--
COMPOUND: CN(C)C(=O)[C@H]1C[C@@H]2CN(S(=O)(=O)Cc3ccccc3)C[C@H]1O2
Percent Effect, %: -3.49
--
COMPOUND: COCCNC(=O)[C@H]1CN(Cc2scnc2C)C[C@H]2OCC[C@@H]12
Percent Effect, %: 0.32
--
COMPOUND: O=C(C(CNCc1ccncc1)c1ccccc1)N1CCOCC1 (stereo unspecified)
Percent Effect, %: -69.6
--
COMPOUND: O=C(Cc1ccsc1)N1CCn2cc(CN3CCCC3)nc2C1
Percent Effect, %: -12
--
COMPOUND: CN1CCCC1c1ccc(C(=O)N2CCc3ccccc3C2)s1 (stereo unspecified)
Percent Effect, %: -38.1
--
COMPOUND: O=C(NCCCNC(=O)c1cccc(O)c1)NCc1ccccc1F
Percent Effect, %: -41.9
--
COMPOUND: CN(Cc1ccco1)[C@@H]1CN(C(=O)c2ccnnc2)C[C@@H]2CCCO[C@@H]21
Percent Effect, %: -5.91
--
COMPOUND: CCn1cc(CN2CCCn3nc(CCC(=O)NCCO)cc3C2)cn1
Percent Effect, %: -51
--
COMPOUND: CC(C)c1noc(CN(Cc2ccccc2F)C2CC2)n1
Percent Effect, %: -59.6
--
COMPOUND: CCn1nc(CC(C)C)cc1C(=O)NCCCOC
Percent Effect, %: 11.5
--
COMPOUND: Cn1cccc1C(=O)N1CCC2(CC1)CN(c1ccccn1)CCO2
Percent Effect, %: -7.72
--
COMPOUND: CC(=O)N1CCCn2nc(CNS(=O)(=O)N3CCCCCC3)cc2C1
Percent Effect, %: -4.22
--
COMPOUND: CC(C)c1cc(NCC(C)N2CCCC2)n2nccc2n1 (stereo unspecified)
Percent Effect, %: -11.9
--
COMPOUND: CCOc1ccnc(N2CCN(C(=O)c3cc(Cl)c[nH]3)CC2)n1
Percent Effect, %: 18.5
--
COMPOUND: CCc1noc(C2CCCCN2C(=O)c2nnc3ccccc3n2)n1 (stereo unspecified)
Percent Effect, %: -8.75
--
COMPOUND: COC(=O)CCC(=O)N1CCc2[nH]nc(-c3ccc4c(c3)OCO4)c2C1
Percent Effect, %: -8.22
--
COMPOUND: CNC(=O)CC1CCN(Cc2nc(-c3cccc(Cl)c3)oc2C)CC1
Percent Effect, %: -21.3
--
COMPOUND: Cc1ccc(CN2CCCC23CCN(S(=O)(=O)c2ccccc2)C3)o1 (stereo unspecified)
Percent Effect, %: 3.29
--
COMPOUND: CCc1ccc(CN2CCC3(CC2)NC(=O)CC3c2ccncc2)o1 (stereo unspecified)
Percent Effect, %: -9.95
--
COMPOUND: O=C(c1ccsc1)N1CCOC2(CCN(Cc3cccnc3)CC2)C1
Percent Effect, %: -9.41
--
COMPOUND: N#Cc1cccnc1N1CCC2(CCCN(C3CCOCC3)C2=O)C1 (stereo unspecified)
Percent Effect, %: -16.3
--
COMPOUND: N#Cc1ccccc1CN1C[C@@H]2CC[C@H](C1)N(CC1CC1)C2=O
Percent Effect, %: -9.72
--
COMPOUND: NC(=O)C1CCN(C(=O)CCn2ccc3cc(Br)ccc32)CC1
Percent Effect, %: 12.4
--
COMPOUND: Cc1nccn1-c1cccc(C2CCCN(C(=O)c3cc[nH]n3)C2)n1 (stereo unspecified)
Percent Effect, %: -32.7
--
COMPOUND: CN(C)C(=O)CCCNC(=O)C(c1cccc(F)c1)N(C)C (stereo unspecified)
Percent Effect, %: -24.8
--
COMPOUND: Cc1cc(CN2C[C@@H]3CCCO[C@@H]3[C@H](Nc3ccccn3)C2)no1
Percent Effect, %: 10.7
--
COMPOUND: COCCN1CCN(C(C)C(=O)Nc2ccnn2C(C)C)CC1 (stereo unspecified)
Percent Effect, %: -2.27
--
COMPOUND: CSc1ccsc1C(=O)N1CCN(CC(C)(C)O)CC1
Percent Effect, %: -13.5
--
COMPOUND: CCc1nc(CN(C)CC(c2cccs2)N2CCOCC2)no1 (stereo unspecified)
Percent Effect, %: -5.08
--
COMPOUND: O=C(CCC1CCCO1)NCc1ccnc(-n2cccn2)c1 (stereo unspecified)
Percent Effect, %: 21.6
--
COMPOUND: Cn1cc(CN2CC[C@@H]3[C@@H](CCC(=O)N3CCc3c[nH]cn3)C2)cn1
Percent Effect, %: -37.6
--
COMPOUND: Cc1ccc(CN2CCC3(CC2)CC(c2cccnc2)CO3)s1 (stereo unspecified)
Percent Effect, %: -7.07
--
COMPOUND: CN(C)CCCn1ccnc1C1CCCN(c2cc(N)ncn2)C1 (stereo unspecified)
Percent Effect, %: 1.04
--
COMPOUND: Cc1ncccc1O[C@H]1CCN(C(=O)c2cccs2)CC[C@@H]1O
Percent Effect, %: 6.92
--
COMPOUND: O=C(NCC1CC1)[C@H]1C[C@@H]2CN(S(=O)(=O)Cc3ccccc3)C[C@H]1O2
Percent Effect, %: -14.6
--
COMPOUND: O=C(NCCn1ccc(-c2ccncc2)n1)c1ccncc1
Percent Effect, %: -65.9
--
COMPOUND: O=C(c1ccc2c(c1)COC2)N1CCN(CC2CC2)CC1
Percent Effect, %: -1.4
--
COMPOUND: O=C(C1CC1)N1CCN(Cc2coc(-c3ccc(Cl)cc3)n2)CC1
Percent Effect, %: 7.92
--
COMPOUND: CC(C)c1nc(C2CCCN(C(=O)c3ccc4[nH]cnc4c3)C2)no1 (stereo unspecified)
Percent Effect, %: 0.178
--
COMPOUND: CCc1nc(CNCC2CCCN2c2cc(NC)ncn2)cs1 (stereo unspecified)
Percent Effect, %: -5.66
